Assay: melting temperature; fluorescence melt of hairpins on a sequencing array, two-state fit, raised by 9.35 °C to match UV melts
Details: sodium 0.088 M
Binary classification by Tm, with 40 °C as an inclusive lower bound for MET; all other cases are NOT MET.

Some entries whose results are on file:
Request: Identify whether the reported Tm of the following sequence is 40 °C or greater: GATTTCGGAAACGAAACC (.(((((....))))).)
Result: NOT MET

Request: Reported Tm at or above 40 °C? GAAGTGGGAAACCACTCC (.(((((....))))).)
Result: NOT MET

---
Request: Assess whether reported Tm for GATGGGGGAAACCCCGTC ((.((((....)))).)) sits at 40 °C or higher.
Result: MET

Request: Has GCTGATGGAAACACCAGC ((((.((....)).)))) a recorded Tm greater than or equal to 40 °C?
Result: MET

Request: Record GTGCACGGAAACGTGTAC ((.((((....)))).)) ; criterion: Tm no lower than 40 °C. Met?
Result: MET

Request: Item GATCCAAGCTTGGATC ((((((....)))))) with Tm of 40 °C or above?
Result: MET

* * *

Experiment: folding enthalpy; higher = less favourable; fluorescence melt of hairpins on a sequencing array, two-state fit
Settings: sodium 0.088 M
List of folding enthalpy values.
Field: numeric (kcal/mol). Do not append units.

# example entries with known answers
Request: Report measured folding enthalpy; entry is GCCGCAGGAAACCACGGC ((((..(....)..))))
Result: -20.4

Request: Could you please provide reported folding enthalpy for GATCCTGCATAGGATC ((((((....)))))) ? Thanks!
Result: -43.4

Request: Return folding enthalpy (reported value) for this sequence: CATTTGAAAAAATG (((((....)))))
Result: -11.1

Further cases:
Request: Give me measured folding enthalpy, please, for this sequence: GTGGTGGGAAACTGCCAC ((((..(....)..))))
Result: -29.2

Request: Input GTCATGCGAAAGCACGAC (((.(((....))).))) , output reported folding enthalpy.
Result: -27.5

Request: Please indicate folding enthalpy recorded for GACGGGGGAAACCCCATC ((.((((....)))).))
Result: -14.7

Request: Given GCAAAGCGAAAGCGTCGC ((.(.((....)).).)) , respond with its folding enthalpy.
Result: -23.7

Request: Name the recorded folding enthalpy of the item GATCCAAGGATGGATC ((((((....)))))) in your answer.
Result: -27.5

Request: Return value of folding enthalpy for input GCATCATCGAAAGATTGC (((..(((....)))))) , no commentary.
Result: -19.8

Request: Hello, please tell me recorded folding enthalpy for this one: TAGCGGAAACGCTA (((((....)))))
Result: -15.9

Request: Name the recorded folding enthalpy of the sequence listed here: CGACACGGAAACGTATCG (((.(((....))).)))
Result: -28.1

Request: Supply folding enthalpy value. Item: GATCTCTGTTGAGATC ((((((....))))))
Result: -41

Request: Respond only with folding enthalpy recorded for GGACACCGAAAGGTCTCC (((.(((....))).)))
Result: -23.8

Request: Supply measured folding enthalpy of GATCATGTGTATGATC ((((((....)))))) in your reply.
Result: -41.9

Request: Give the value of folding enthalpy reported for the following: GACTGCGGAAACGCAACC (..((((....))))..)
Result: -9.21

Request: Determine its reported folding enthalpy: GAGCCTGGAAACGGGCTC (((((.(....).)))))
Result: -47.8

Request: Identify measured folding enthalpy associated with GCGATTGGTCGC ((((....))))
Result: -23.4

Request: Recall and state the measured folding enthalpy for GATCGACAACTCGATC ((((((....)))))) .
Result: -33.8

Request: Given GGGATCGAAAGATCTCCC ((((((....)))..))) , respond with its folding enthalpy.
Result: -14.1

Request: Respond only with folding enthalpy recorded for GCGAGGCCTCGC ((((....))))
Result: -46
